- Species: Rattus norvegicus
- ASSAY REMARKS: Open TG-GATES - Regimen: Daily Repeat
- Type: toxicity, organism-based, Sprague-Dawley
- Set-up: regimen Daily Repeat, gender Male, age 6 weeks
- CONDITION: in vivo, po, 300 mg/kg, 72 h, route gavage, dose level Middle, time 3 day
READOUT LABEL: TERMINAL_BW (g)
Use g as the unit, but write only the number.

Problem: // TERMINAL_BW lookup, key: `CCOc1ccc(NC(C)=O)cc1`
Result: 224.3

Problem: Sample `CN/C(=N/CCSCc1nc[nH]c1C)NC#N` — what was its TERMINAL_BW?
Result: 228.5

Problem: Look up TERMINAL_BW: `CNC(=C[N+](=O)[O-])NCCSCc1ccc(CN(C)C)o1`
Result: 231.7
